Consider the following compounds; for each one, report its inhibition at 0.03 µM.
- test_system: human CB2 (Homo sapiens, UniProt P34972)
- Construct: expressed in transfected cells; host or cells: CHO cells
- Sequence (P34972 whole entry): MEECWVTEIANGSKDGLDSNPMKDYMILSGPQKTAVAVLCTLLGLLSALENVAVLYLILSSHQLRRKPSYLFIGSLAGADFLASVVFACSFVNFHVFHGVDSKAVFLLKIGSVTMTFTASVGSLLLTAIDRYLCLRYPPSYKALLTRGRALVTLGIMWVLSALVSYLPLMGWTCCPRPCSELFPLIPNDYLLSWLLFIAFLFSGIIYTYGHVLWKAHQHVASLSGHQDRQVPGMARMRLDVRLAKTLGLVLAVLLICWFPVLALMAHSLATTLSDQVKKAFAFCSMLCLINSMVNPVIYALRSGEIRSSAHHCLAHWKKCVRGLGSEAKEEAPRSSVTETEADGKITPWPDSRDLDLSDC
- assay_text: Test on inhibition of human CB2-mediated cyclic AMP (cAMP) production
- Format: cell-based
- condition_notes: 30 nM test substance; forskolin 0.5 μM; human CB2-expressing CHO cells; 30 minutes at room temperature; read-out: Inh(%): inhibition rate of cAMP increase
- Protocol: This test was performed using CHO cells caused to express human CB2 (“Molecular Pharmacology”, 1995, Vol. 48, pp 443-450). A human CB2-expressing CHO cell (2.5×10^3/mL) suspension and an assay medium supplemented with a test substance and forskolin (final concentration of 0.5 μM) were mixed together in equal amounts, followed by incubation for 30 minutes at room temperature, and then a 0.6% Triton X-100 solution was added thereto, thereby obtaining a cell lysate. […]
A number alone suffices; assume %.

Input line: Find inhibition at 0.03 µM (human CB2 (Homo sapiens, UniProt P34972)) for the entry `Cc1ccc(F)c(Nc2cnc(C(=O)N3CCS(=O)(=O)CC3)c3c2C2CCC3CC2)c1`
Output line: 111

Input line: And `O=C(c1ncc(Nc2cccc(C(F)(F)F)c2)c2c1CCCC2)N1CCS(=O)(=O)CC1` ?
Output line: 82

Input line: Next up: `O=C(c1cnc(Oc2cccc(C(F)(F)F)c2)c2c1CCCC2)N1CCS(=O)(=O)CC1`
Output line: 96
